- System: adipose tissues from male Zucker fatty (fa/fa) rats
- EXPERIMENT_SUMMARY: In vitro inhibition of lipogenesis in isolated adipose tissue
- Type: cell-based, rat
- ASSAY_CONTEXT: peptide 0.3 μM, insulin 0.1 mU/ml, KRB buffer
Bridges are numbered along the chain shown (N, C = ends). Where no end group is shown, it is not given here. The star is where a group is joined. Acm = CC(=O)NC*
MEASURED_ENDPOINT: In vitro lipogenesis, rate of [C14]-glucose incorporation into [C14]-lipid (nmol/g tissue/hr)
One number for each entry, in nmol/g tissue/hr.

>>> test_value("9614 (LRIVQCRSVAGSCGF; listed as Homo sapiens) [Compound 9614]")
233
>>> test_value("9402 (LRIVQC(Acm)RSVEGSCGF; not fully specified (residue 13); listed as Homo sapiens) [Compound 9402]")
222
>>> test_value("9609 (LRIAQCRSVEGSCGF; disulfide 6-13; listed as Homo sapiens) [Compound 9609]")
188

Moving on to another substance below.
Task item: Could you tell me which In vitro lipogenesis, rate of [C14]-glucose incorporation into [C14]-lipid is on file for 9404 (LRIVQCRSVEGSCGF-NH2; disulfide 6-13; N-terminus assumed; SMILES CC[C@H](C)[C@H](NC(=O)[C@H](CCCNC(=N)N)NC(=O)[C@@H](N)CC(C)C)C(=O)N[C@H](C(=O)N[C@@H](CCC(N)=O)C(=O)N[C@H]1CSSC[C@@H](C(=O)NCC(=O)N[C@@H](Cc2ccccc2)C(N)=O)NC(=O)[C@H](CO)NC(=O)CNC(=O)[C@H](CCC(=O)O)NC(=O)[C@H](C(C)C)NC(=O)[C@H](CO)NC(=O)[C@H](CCCNC(=N)N)NC1=O)C(C)C; listed as Homo sapiens) [Compound 9404] ?
Reply: 187
